Where do the numbers come from? From ChEMBL document CHEMBL3352151.

- System: Klebsiella pneumoniae
- experimental-protocol: Antibacterial activity against clinical isolates of Klebsiella pneumoniae GMCH/B0127 after overnight incubation by microdilution broth assay
- Format: functional
Square brackets hold non-standard residues; d marks the D form. Peptide text beside a SMILES is read from it. * marks the point of attachment. Stearoyl = CCCCCCCCCCCCCCCCCC(=O)*; Palmitoyl = CCCCCCCCCCCCCCCC(=O)*; Myristoyl = CCCCCCCCCCCCCC(=O)*; Orn = NCCC[CH](N)C(=O)O
Lab note - cut at 4 µg/mL for MIC: T if strictly below, F if not.

{"compound": "CCCCCCCCCCCCCC(=O)NC(CCCN)C(=O)NC(CCCN)C(=O)NC(CCCN)C(=O)NC(CCCN)C(=O)NC(CCCN)C(N)=O (stereo not given) (Myristoyl-[Orn][Orn][Orn][Orn][Orn]-NH2; configuration not given here)", "class": "F"}
{"compound": "CCCCCCCCCCCCCCCCCC(=O)NC(CCCN)C(=O)NC(CCCN)C(=O)NC(CCCN)C(=O)NC(CCCN)C(N)=O (stereo not given) (Stearoyl-[Orn][Orn][Orn][Orn]-NH2; configuration not given here)", "class": "T"}
{"compound": "CCCCCCCCCCCCCCCC(=O)NC(CCCN)C(=O)NC(CCCN)C(=O)NC(CCCN)C(=O)NC(CCCN)C(N)=O (stereo not given) (Palmitoyl-[Orn][Orn][Orn][Orn]-NH2; configuration not given here)", "class": "T"}
{"compound": "CCCCCCCCCCCCCC(=O)NC(CCCN)C(=O)NC(CCCN)C(=O)NC(CCCN)C(=O)NC(CCCN)C(N)=O (stereo not given) (Myristoyl-[Orn][Orn][Orn][Orn]-NH2; configuration not given here)", "class": "F"}
